Origin of measurements: patent US20240400701A1

What pEC50 was measured for each of the following?
Biological target: T1, human AMHRII (anti-Mullerian hormone receptor type 2) (human, UniProt Q16671 18-573)
T1 construct: whole, on cells; also called AMHR2; human AMHR2
T1 sequence (looked up): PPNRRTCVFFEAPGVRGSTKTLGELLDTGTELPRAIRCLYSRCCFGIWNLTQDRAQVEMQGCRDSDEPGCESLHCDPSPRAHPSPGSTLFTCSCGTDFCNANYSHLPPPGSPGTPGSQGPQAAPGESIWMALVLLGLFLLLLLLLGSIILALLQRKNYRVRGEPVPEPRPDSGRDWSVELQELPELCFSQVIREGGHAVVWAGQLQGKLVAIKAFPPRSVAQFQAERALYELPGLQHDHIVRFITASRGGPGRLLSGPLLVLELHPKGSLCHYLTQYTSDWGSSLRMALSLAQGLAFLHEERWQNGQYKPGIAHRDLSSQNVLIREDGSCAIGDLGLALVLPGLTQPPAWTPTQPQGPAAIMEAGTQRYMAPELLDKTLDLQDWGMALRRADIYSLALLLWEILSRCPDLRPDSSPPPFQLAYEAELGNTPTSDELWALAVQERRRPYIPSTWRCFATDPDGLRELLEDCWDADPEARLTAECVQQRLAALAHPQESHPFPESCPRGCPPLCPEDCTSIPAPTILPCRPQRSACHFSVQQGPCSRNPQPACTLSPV
Assay: FACS on Rko cells over-expressing human AMHR2
One number for each entry, as −log10 of the molar value.

Recorded pEC50, per entry:
| binder | pEC50 |
| --- | --- |
| 94C4C3 H1L1 hIgG1 (antibody, V domains shown, Humanized, human IgG1; also called 94C4C3 H1L1 hlgG1) VH: QLQLQESGPGLVKPSETLSLTCTVSGYSITSDYAWNWIRQPPGKGLEWIGYISYSGSISYNPSLKSRVTISVDTSKNQFSLKLSSVTAADTAVYYCARSRYSWFDYWGQGTLVTVSS VL: EIVLTQSPGTLSLSPGERATLSCSASESVDTYGNSFMHWYQQKPGQAPRLLIYRASSLESGIPDRFSGSGSGTDFTLTISRLEPEDFAVYYCQQSNEDPYTFGGGTKVEIK | 9.16 |
| 31D9B3 VH1.2-VL2 hIgG1 (antibody, V domains shown, Humanized, PTM de-risked (VH G55D), human IgG1; also called 31D9B3 VH1.2-VL2 hlgG1) VH: QVQLVQSGAEVKKPGASVKVSCKASGYTFTDYWVSWVRQAPGQGLEWMGEIYPKNDVSNFNEKFKGRVTMTTDTSTSTAYMELRSLRSDDTAVYYCARQRDYWGQGTLVTVSS VL: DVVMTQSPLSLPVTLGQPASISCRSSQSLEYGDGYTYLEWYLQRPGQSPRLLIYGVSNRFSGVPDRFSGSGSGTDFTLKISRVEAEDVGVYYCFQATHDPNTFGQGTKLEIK | 8.87 |
| 31D9B3 VH1.2-VL2.2 hIgG1 (antibody, V domains shown, Humanized, PTM de-risked, human IgG1; also called 31D9B3 VH1.2-VL2.2 hlgG1) VH: QVQLVQSGAEVKKPGASVKVSCKASGYTFTDYWVSWVRQAPGQGLEWMGEIYPKNDVSNFNEKFKGRVTMTTDTSTSTAYMELRSLRSDDTAVYYCARQRDYWGQGTLVTVSS VL: DVVMTQSPLSLPVTLGQPASISCRSSQSLEYGDRYTYLEWYLQRPGQSPRLLIYGVSNRFSGVPDRFSGSGSGTDFTLKISRVEAEDVGVYYCFQATHDPNTFGQGTKLEIK | 9.06 |

Provide pEC50 values for the following items, in order.
1. 31D9B3 VH1-VL2.2 hIgG1 (antibody, V domains shown, Humanized, PTM de-risked (VL G(30D)R), human IgG1; also called 31D9B3 VH1-VL2.2 hlgG1) VH: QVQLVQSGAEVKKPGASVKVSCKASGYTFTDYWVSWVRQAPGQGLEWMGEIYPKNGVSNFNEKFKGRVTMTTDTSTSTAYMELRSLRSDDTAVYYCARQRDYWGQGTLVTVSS VL: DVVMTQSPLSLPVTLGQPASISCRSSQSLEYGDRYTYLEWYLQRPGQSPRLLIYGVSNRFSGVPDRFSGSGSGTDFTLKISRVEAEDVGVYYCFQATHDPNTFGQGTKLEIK
2. 31D9B3 H1L2 hIgG1 (antibody, V domains shown, Humanized, human IgG1; also called 31D9B3 H1L2 hlgG1; 31D9B3 VH1-VL2 hlgG1) VH: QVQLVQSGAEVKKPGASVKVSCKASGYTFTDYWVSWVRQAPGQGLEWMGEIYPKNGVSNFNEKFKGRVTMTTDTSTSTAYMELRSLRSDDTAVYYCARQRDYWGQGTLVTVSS VL: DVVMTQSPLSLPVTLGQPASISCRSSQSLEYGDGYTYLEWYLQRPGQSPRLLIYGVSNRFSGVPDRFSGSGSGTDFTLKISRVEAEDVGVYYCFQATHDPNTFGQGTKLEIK
3. 31D9B3 VH1.3-VL2 hIgG1 (antibody, V domains shown, Humanized, PTM de-risked (VH G55Q), human IgG1; also called 31D9B3 VH1.3-VL2 hlgG1) VH: QVQLVQSGAEVKKPGASVKVSCKASGYTFTDYWVSWVRQAPGQGLEWMGEIYPKNQVSNFNEKFKGRVTMTTDTSTSTAYMELRSLRSDDTAVYYCARQRDYWGQGTLVTVSS VL: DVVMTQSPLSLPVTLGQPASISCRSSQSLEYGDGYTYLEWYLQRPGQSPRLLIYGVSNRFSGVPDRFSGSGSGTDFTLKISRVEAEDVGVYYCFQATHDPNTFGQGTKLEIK
4. xi108F3D1E9 hIgG1 (antibody, V domains shown, Murine variable domains in human chimeric format, human IgG1; also called xi108F3D1E9 hlgG1; 108F3D1E9 (chimeric)) VH: DVQLQESGPGLVKPSQSLSLTCTVTGYSITSDFAWNWIRQFPGNKLEWMGYINFSGSTSYNPSLKSRISITRDTSKNQFFLQLNSVTTEDTATYYCAGSRYSWFAYWGQGTLVTVSA VL: DIVLTQSPASLAVSLGQRATISCRASESVDTYGNSFMHWYQQKPGQPPKLLIYRASNLESGIPARFSGSGSRTDFTLTINPVEADDVATYYCQQSNEDPYTFGGGTKLEIK
5. xi31D9B3 hIgG1 (antibody, V domains shown, Murine variable domains in human chimeric format, human IgG1; also called xi31D9B3 hlgG1; 31D9B3 hlgG1) VH: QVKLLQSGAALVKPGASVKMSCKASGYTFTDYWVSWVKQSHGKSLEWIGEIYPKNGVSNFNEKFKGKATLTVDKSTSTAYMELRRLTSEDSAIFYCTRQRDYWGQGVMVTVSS VL: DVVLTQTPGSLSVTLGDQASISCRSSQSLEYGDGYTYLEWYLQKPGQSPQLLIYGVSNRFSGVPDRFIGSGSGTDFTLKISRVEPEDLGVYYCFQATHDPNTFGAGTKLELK

*A*
1: 9.04; 2: 8.92; 3: 9.01; 4: 9.12; 5: 9.18

Provide pEC50 values for the following items, in order.
1. 108F3D1E9 H1L1 hIgG1 (antibody, V domains shown, Humanized, PTM de-risked VH, human IgG1; also called 108F3D1E9 H1L1 hlgG1) VH: QLQLQESGPGLVKPSETLSLTCTVSGYSITSDFAWNWIRQPPGKGLEWIGYISFSGSTSYNPSLKSRVTISVDTSKNQFSLKLSSVTAADTAVYYCARSRYSWFAYWGQGTLVTVSS VL: DIQMTQSPSSLSASVGDRVTITCRASESVDTYGNSFMHWYQQKPGKAPKLLIYRASNLESGVPSRFSGSGSGTDFTLTISSLQPEDFATYYCQQSNEDPYTFGGGTKVEIK
2. xi94C4C3 hIgG1 (antibody, V domains shown, Murine variable domains in human chimeric format, human IgG1; also called xi94C4C3 hlgG1; 94C4C3 (chimeric)) VH: DVQLQESGPGLVKPSQSLSLTCTVTGYSITSDYAWNWIRQFPGNKLEWMGYISYSGSISYNPSLKSRISITRDTSKNQFFLQLNSVTTEDTATYYCARSRYSWFDYWGQGTLVTVSA VL: DIVLTQSPTSLAVSLGQRATLSCSASESVDTYGNSFMHWYQQKPGQPPKLLIYRASSLESGIPVRFSGSGSRTDFTLTINPVEAADVATYYCQQSNEDPYTFGGGTKLEIK
3. 31D9B3 VH1.3-VL2.2 hIgG1 (antibody, V domains shown, Humanized, PTM de-risked, human IgG1; also called 31D9B3 VH1.3-VL2.2 hlgG1) VH: QVQLVQSGAEVKKPGASVKVSCKASGYTFTDYWVSWVRQAPGQGLEWMGEIYPKNQVSNFNEKFKGRVTMTTDTSTSTAYMELRSLRSDDTAVYYCARQRDYWGQGTLVTVSS VL: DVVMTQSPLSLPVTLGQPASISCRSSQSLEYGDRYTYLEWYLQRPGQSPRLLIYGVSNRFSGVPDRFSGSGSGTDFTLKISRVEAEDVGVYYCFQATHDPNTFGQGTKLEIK

*A*
[9.28, 9.20, 9.11]
